Just for reference, ChEMBL document CHEMBL1135061 is where these values come from.

test: Tested for half life period at 37 degree Celsius in PBS buffer at 8.0 pH containing human serum esterase; type: ADME; settings: pH 8

compound | half-life / h
COc1cc([C@@H]2c3cc4c(cc3C(O[C@@H]3O[C@H]5CO[C@@H](C)O[C@H]5[C@H](O)[C@@H]3O)C3COC(=O)[C@@H]32)OCO4)cc(OC)c1OC(=O)OCC(O)CO (stereo partly specified) | 3.61

----------
assay: Tested for half life period at 37 degree Celsius in PBS buffer at 10.5 pH containing human serum esterase; type: ADME; conditions: pH 10.5

compound | half-life (min)
COc1cc([C@@H]2c3cc4c(cc3C(O[C@@H]3O[C@H]5CO[C@@H](C)O[C@H]5[C@H](O)[C@@H]3O)C3COC(=O)[C@@H]32)OCO4)cc(OC)c1OC(=O)OCC(O)CO (stereo partly specified) | 6.93

----------
assay: Tested for half life period at 37 degree Celsius in PBS buffer at 8.8 pH containing human serum esterase; assay type: ADME; conditions: pH 8.8
reportedEndpoint: half-life (h)

compound | reportedEndpoint | measuredResult
COc1cc([C@@H]2c3cc4c(cc3C(O[C@@H]3O[C@H]5CO[C@@H](C)O[C@H]5[C@H](O)[C@@H]3O)C3COC(=O)[C@@H]32)OCO4)cc(OC)c1OC(=O)OCC(O)CO (stereo partly specified) | half-life | 1.62

----------
assay: Tested for half life period at 37 degree Celsius in PBS buffer at 7.3 pH containing porcine liver esterase; assay type: ADME, Sus scrofa; details: pig, pH 7.3
reportedEndpoint: half-life (min)

compound | unit | measuredResult
COc1cc([C@@H]2c3cc4c(cc3C(O[C@@H]3O[C@H]5CO[C@@H](C)O[C@H]5[C@H](O)[C@@H]3O)C3COC(=O)[C@@H]32)OCO4)cc(OC)c1OC(=O)OCC1COC(C)(C)O1 (stereo partly specified) | min | 14.2
